Taken from patent US8273762B2.

Molecular target: cloned human H3 receptor, stably expressed in SK-N-MC cells (Homo sapiens, UniProt Q9Y5N1)
Sequence (Q9Y5N1 whole entry): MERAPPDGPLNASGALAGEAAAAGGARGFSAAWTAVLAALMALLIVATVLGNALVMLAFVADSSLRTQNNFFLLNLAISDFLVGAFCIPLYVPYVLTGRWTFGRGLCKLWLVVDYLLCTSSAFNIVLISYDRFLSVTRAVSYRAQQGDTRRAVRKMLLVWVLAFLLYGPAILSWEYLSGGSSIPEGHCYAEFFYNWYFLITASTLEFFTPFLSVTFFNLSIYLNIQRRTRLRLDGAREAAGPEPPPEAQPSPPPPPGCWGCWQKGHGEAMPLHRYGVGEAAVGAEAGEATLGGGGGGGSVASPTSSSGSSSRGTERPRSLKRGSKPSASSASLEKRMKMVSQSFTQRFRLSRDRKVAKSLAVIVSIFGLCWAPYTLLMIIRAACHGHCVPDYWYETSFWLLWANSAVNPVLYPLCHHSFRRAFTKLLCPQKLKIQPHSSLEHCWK
parameter: pKi
Give bare numbers, as −log10 of the molar value.

Worked cases, pKi given:
| molecule | pKi |
| --- | --- |
| c1cncc([C@H]2CN3CCC[C@H]3c3cc(OCCCN4CCOCC4)ccc32)c1 (relative stereo) [Example 59] | 8.70 |
| O=[N+]([O-])c1cccc([C@@H]2CN3CCC[C@H]3c3cc(OCCCN4CCCCC4)ccc32)c1 (relative stereo) [Example 4B] | 9.00 |
| Ic1cccc([C@H]2CN3CCC[C@H]3c3cc(OCCCN4CCCCC4)ccc32)c1 (relative stereo) [Example 32] | 9.00 |
| c1ccc([C@@H]2CN3CCC[C@H]3c3cccc(OCCCN4CCCCC4)c32)cc1 (relative stereo) [Example 1C] | 7.17 |
| COc1cccc([C@H]2CN3CCC[C@H]3c3cc(OCCCN4CCCCC4)ccc32)c1 (relative stereo) [Example 10A] | 8.70 |

Record pKi per entry; entries follow.
1. COc1ccc([C@@H]2CN3CCC[C@H]3c3cc(C#CCCN4CCCCC4)ccc32)cc1 (relative stereo) [Example 96A]
2. c1ccc([C@H]2CN3CCC[C@H]3c3cc(OCCCN4CCCCC4)ccc32)cc1 (relative stereo) [Example 1A]
3. Clc1cccc([C@@H]2CN3CCC[C@H]3c3cccc(OCCCN4CCCCC4)c32)c1 (relative stereo) [Example 11C]
4. FC(F)(F)c1cccc([C@H]2CN3CCC[C@H]3c3cc(OCCCN4CCCCC4)ccc32)c1 (relative stereo) [Example 67]
5. CSc1ccc([C@@H]2CN3CCC[C@H]3c3cc(OCCCN4CCCCC4)ccc32)cc1 (relative stereo) [Example 39B]
6. Clc1ccc([C@@H]2CN3CCC[C@H]3c3cc(OCCCN4CCCCC4)ccc32)cc1 (relative stereo) [Example 66A]

Result string:
9.00
9.05
6.87
8.70
9.00
8.70

Record pKi per entry; entries follow.
1. c1ccn2c([C@H]3CN4CCC[C@H]4c4cc(OCCCN5CCOCC5)ccc43)cnc2c1 (relative stereo) [Example 55]
2. C[Si](C)(C)C#Cc1ccc([C@H]2CN3CCC[C@H]3c3cc(OCCCN4CCCCC4)ccc32)cc1 (relative stereo) [Example 36]
3. COc1cccc([C@@H]2CN3CCC[C@H]3c3cccc(OCCCN4CCCCC4)c32)c1 (relative stereo) [Example 10C]
4. COc1cc([C@H]2CN3CCC[C@H]3c3cc(OCCCN4CCCCC4)ccc32)cc(OC)c1OC (relative stereo) [Example 22]
5. Clc1ccccc1[C@@H]1CN2CCC[C@H]2c2cccc(OCCCN3CCCCC3)c21 (relative stereo) [Example 12C]
6. Oc1ccc([C@@H]2CN3CCC[C@H]3c3cc(OCCCN4CCOCC4)ccc32)cn1 (relative stereo) [Example 51A]
7. Oc1cccc([C@H]2CN3CCC[C@H]3c3cc(OCCCN4CCCCC4)ccc32)c1 (relative stereo) [Example 15]

Result string:
1. 8.70
2. 8.40
3. 7.09
4. 9.10
5. 7.04
6. 8.52
7. 9.15

Record pKi per entry; entries follow.
1. CSc1ccc([C@H]2CN3CCC[C@H]3c3cc(OCCCN4CCOCC4)ccc32)cc1 (relative stereo) [Example 63]
2. Fc1ccc([C@@H]2CN3CCC[C@H]3c3cccc(OCCCN4CCCCC4)c32)cc1 (relative stereo) [Example 14C]
3. c1cnc([C@@H]2CN3CCC[C@H]3c3cc(OCCCN4CCOCC4)ccc32)cn1 (relative stereo) [Example 50A]
4. c1cncc([C@H]2CN3CCC[C@H]3c3cc(OCCCN4CCCCC4)ccc32)c1 (relative stereo) [Example 26]

Result string:
1. 7.80
2. 6.70
3. 8.40
4. 9.10

Record pKi per entry; entries follow.
1. c1ncc([C@H]2CN3CCC[C@H]3c3cc(OCCCN4CCOCC4)ccc32)s1 (relative stereo) [Example 52]
2. COc1ccc([C@H]2CN3CCC[C@H]3c3cc(OCCCN4CCCCC4)ccc32)cc1OC (relative stereo) [Example 18]
3. CN(C)c1ccc([C@H]2CN3CCC[C@H]3c3cc(OCCCN4CCCCC4)ccc32)cc1 (relative stereo) [Example 30]
4. COc1cccc([C@@H]2CN3CCC[C@H]3c3cc(OCCCN4CCCCC4)ccc32)c1 (relative stereo) [Example 10B]

Result string:
1: 8.40; 2: 9.05; 3: 8.70; 4: 8.70

Record pKi per entry; entries follow.
1. c1ccc([C@@H]2CN3CCC[C@H]3c3cc(OCCCN4CCCCC4)ccc32)cc1 (relative stereo) [Example 1B]
2. Clc1ccccc1[C@H]1CN2CCC[C@H]2c2cc(OCCCN3CCCCC3)ccc21 (relative stereo) [Example 12B]

Result string:
9.70
9.00

* * *

Biological target: human H3 receptor (SK-N-MC cells) (Homo sapiens)
Construct: expressed in transfected cells; host or cells: SK-N-MC sublines with CRE-beta-galactosidase reporter
Experiment: Cyclic AMP accumulation (β-galactosidase reporter, Schild analysis vs histamine)
Type: cell-based
Conditions: read-out: H3 pA2 (converted)
parameter: Kb

Worked cases, Kb given:
| molecule | Kb |
| --- | --- |
| c1ccc([C@@H]2CN3CCC[C@H]3c3cc(OCCCN4CCCCC4)ccc32)cc1 (relative stereo) [Example 1B] | 0.251 nM |
| C#Cc1cccc([C@H]2CN3CCC[C@H]3c3cc(OCCCN4CCCCC4)ccc32)c1 (relative stereo) [Example 34] | 1 nM |
| Nc1ccc([C@H]2CN3CCC[C@H]3c3cc(OCCCN4CCCCC4)ccc32)cc1 (relative stereo) [Example 3] | 0.0794 nM |
| COc1ccc([C@H]2CN3CCC[C@H]3c3cc(OCCCN4CCCCC4)ccc32)cc1OC (relative stereo) [Example 18] | 0.501 nM |
| Clc1cccc([C@H]2CN3CCC[C@H]3c3cc(OCCCN4CCCCC4)ccc32)c1 (relative stereo) [Example 11B] | 0.501 nM |

Record Kb per entry; entries follow.
1. COc1ccc(OC)c([C@H]2CN3CCC[C@H]3c3cc(OCCCN4CCCCC4)ccc32)c1 (relative stereo) [Example 20]
2. O=[N+]([O-])c1cccc([C@H]2CN3CCC[C@H]3c3cc(OCCCN4CCCCC4)ccc32)c1 (relative stereo) [Example 4A]

Result string:
["1 nM", "0.126 nM"]

* * *

Target: human H3 receptor (SK-N-MC cells) (Homo sapiens, UniProt Q9Y5N1)
Construct: expressed in transfected cells; host or cells: SK-N-MC sublines with CRE-beta-galactosidase reporter
Sequence (Q9Y5N1 whole entry): as the sequence (Q9Y5N1 whole entry) above
Assay: Cyclic AMP accumulation (β-galactosidase reporter, Schild analysis vs histamine)
Assay type: cell-based
Conditions: read-out: H3 pA2 (converted)
hey, just use Criterion met if measured Kb is less than 3000 pM, otherwise Criterion not met

Query string: Lab log: compare recorded Kb with 3000 pM; is it strictly lower for COc1cc([C@H]2CN3CCC[C@H]3c3cc(OCCCN4CCCCC4)ccc32)cc(OC)c1OC (relative stereo) [Example 22] ?
Result string: Criterion met

* * *

Molecular target: UniProt:P31645
Sequence (P31645 whole entry): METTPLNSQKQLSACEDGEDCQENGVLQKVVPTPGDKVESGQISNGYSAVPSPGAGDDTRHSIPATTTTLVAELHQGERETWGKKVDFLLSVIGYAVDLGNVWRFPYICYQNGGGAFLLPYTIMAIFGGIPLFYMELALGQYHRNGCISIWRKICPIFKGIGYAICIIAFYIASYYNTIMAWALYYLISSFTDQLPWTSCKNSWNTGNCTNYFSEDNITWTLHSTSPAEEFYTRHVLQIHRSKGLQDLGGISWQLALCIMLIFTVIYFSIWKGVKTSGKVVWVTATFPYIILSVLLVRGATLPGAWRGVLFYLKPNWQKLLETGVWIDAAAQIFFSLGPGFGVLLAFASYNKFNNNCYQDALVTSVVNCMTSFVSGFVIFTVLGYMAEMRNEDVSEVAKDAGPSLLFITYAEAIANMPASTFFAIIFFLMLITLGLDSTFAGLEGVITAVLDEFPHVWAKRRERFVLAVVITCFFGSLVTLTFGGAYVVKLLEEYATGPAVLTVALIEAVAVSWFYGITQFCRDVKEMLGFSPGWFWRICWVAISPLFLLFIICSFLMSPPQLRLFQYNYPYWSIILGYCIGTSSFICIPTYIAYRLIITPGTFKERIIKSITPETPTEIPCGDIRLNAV
parameter: pKi
Answers are plain numbers, as −log10 of the molar value.

Worked cases, pKi given:
| molecule | subjectOfTest | reportedMeasurement |
| --- | --- | --- |
| COc1ccc([C@H]2CN3CCC[C@@H]3c3cc(OCCCN4CCOCC4)ccc32)cc1 [Example 94] | UniProt:P31645 | 6.95 |
| CN(C)c1ccc([C@H]2CN3CCC[C@H]3c3cc(OCCCN4CCCCC4)ccc32)cc1 (relative stereo) [Example 30] | UniProt:P31645 | 8.70 |
| COc1ccc([C@H]2CN3CCC[C@H]3c3cc(OC4CCN(C(C)C)CC4)ccc32)cc1 (relative stereo) [Example 28] | UniProt:P31645 | 8.30 |

Record pKi per entry; entries follow.
1. Clc1ccc([C@@H]2CN3CCC[C@H]3c3cc(OCCCN4CCCCC4)ccc32)cc1 (relative stereo) [Example 66A]
2. Cc1ccc([C@H]2CN3CCC[C@H]3c3cc(OCCCN4CCCCC4)ccc32)cc1 (relative stereo) [Example 5A]
3. CSc1ccc([C@H]2CN3CCC[C@H]3c3cc(OCCCN4CCCCC4)ccc32)cc1 (relative stereo) [Example 39A]
4. C#Cc1cccc([C@H]2CN3CCC[C@H]3c3cc(OCCCN4CCCCC4)ccc32)c1 (relative stereo) [Example 34]

Result string:
1. 8.22
2. 8.40
3. 8.40
4. 8.52

* * *

Biological target: human H3 receptor (SK-N-MC cells) (Homo sapiens, UniProt Q9Y5N1)
Construct: expressed in transfected cells; host or cells: SK-N-MC sublines with CRE-beta-galactosidase reporter
Assay: Cyclic AMP accumulation (β-galactosidase reporter, Schild analysis vs histamine)
Type: cell-based
Conditions: read-out: H3 pA2 (converted)
I'd appreciate it if you could supply Kb values for the items below.
One number for each entry, in pM.

Worked cases, Kb given:
| compound | Kb [pM] |
| --- | --- |
| c1ccc([C@H]2CN3CCC[C@H]3c3cc(OCCCN4CCCCC4)ccc32)cc1 (relative stereo) | 200 |
| COc1cccc([C@@H]2CN3CCC[C@H]3c3cc(OCCCN4CCCCC4)ccc32)c1 (relative stereo) [Example 10B] | 251 |
| O=[N+]([O-])c1ccc([C@@H]2CN3CCC[C@H]3c3cc(OCCCN4CCCCC4)ccc32)cc1 (relative stereo) | 1580 |

Query string: For human H3 receptor (SK-N-MC cells) (Homo sapiens, UniProt Q9Y5N1), give the measured Kb of the entry N#Cc1ccc([C@H]2CN3CCC[C@H]3c3cc(OCCCN4CCCCC4)ccc32)cc1 (relative stereo) [Example 41B]
Result string: 794
